Cited source for all entries: paper PMC10029098

Here, each record is paired with measured solubility thermodynamic data.
experiment: Thermodynamic solubility measurement; format: physicochemical; conditions: potassium phosphate buffer, pH 7.4, aqueous buffer, thermodynamic from solid
Ends that are not written are not given here.
attribute measured: solubility thermodynamic

- polymer sequence: "RWVARRDYRGDMGFDYWVWE [1d]"
  result: "3400 µM"
- polymer sequence: "RWVWGGGGKKGGGGWVWE [2a]"
  result: "5800 µM"
- polymer sequence: "RWVWRRDYRGDMGFDYWVWE [2b]"
  result: "600 µM"
- polymer sequence: "RWVARRDYRFDMGFDYWVWE [1e]"
  result: "900 µM"
- polymer sequence: "RWCARRDYRFDMGFDYWGWE [1c]"
  result: "300 µM"

====

molecular target: PD1 (Homo sapiens, UniProt Q15116); experiment: UV/Vis-colorimetric PDL1-competitive binding kinetics assay
pKi: −log10 of the molar value. Ends that are not written are not given here.

- polymer sequence: "RWVARRDYRFDMGFDYWVWE [1e]"
  target of assay: "PD1 (Homo sapiens, UniProt Q15116)"
  pKi: 7.39

====

molecular target: PD1/PDL1 interaction (Homo sapiens); experiment: PD1 ImmunoBlocking ELISA; assay type: biochemical
Sequence (Q15116 25-167 limits assumed): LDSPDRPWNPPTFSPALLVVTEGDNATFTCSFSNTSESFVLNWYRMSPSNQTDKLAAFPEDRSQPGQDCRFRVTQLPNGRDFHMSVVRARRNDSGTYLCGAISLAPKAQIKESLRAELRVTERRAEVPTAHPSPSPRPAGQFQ
pEC50: −log10 of the molar value. Ends that are not written are not given here.
attribute measured: pEC50

- polymer sequence: "RWCARRDYRFDMGFDYWGWE [1c]"
  attribute measured: "pEC50"
  numeric readout: 5.43
